Test system: C. elegans
Experiment: C. elegans lifespan assays (liquid and plate)
Assay type: in vivo, Caenorhabditis elegans
Details: Caenorhabditis elegans, 60 μM, in liquid, wild type, with FuDR, 2.5 × 10^9 bacteria/ml; read-out: relative change of mean lifespan vs control, Trial 2
recorded metric: ILS at 60 µM (%)

O=C1NCCCc2cc(Cl)sc21 : -1.7
Cc1cc(N)n(-c2ccccc2C(=O)O)n1 : 6.8
O=C(Nc1nc(C23CC4CC(CC(C4)C2)C3)cs1)C(c1ccccc1)c1ccccc1 : -6.2
O=C(c1ccc([N+](=O)[O-])o1)N1CCc2ccccc21 : 10.3
COc1ccc(C(=O)/C=C/c2ccccc2Br)c(OC)c1 : 14.5
COc1cccc(/C=C2\CN(C)C/C(=C\c3cccc(OC)c3OC)C2=O)c1OC : 17.4
COc1ccc(/C=C2\SC(=N)N(c3nccs3)C2=O)cc1 : -0.5
O=C(/C(=C/c1ccc(Cl)cc1)c1nc2ccccc2[nH]1)c1ccccc1 : 9
O=C(Nc1cc(C(F)(F)F)ccc1Cl)c1ccc([N+](=O)[O-])o1 : 8
COc1ccc(C(=O)/C=C/c2ccc(F)cc2)c(OC)c1 : 1.2

----------
Tested on: NRF2
Assay: qPCR analysis of NRF2-regulated genes
Type: cell-based, human
Conditions: Homo sapiens; WI-38 cells, 10 μM, 24 hrs, n=4, qPCR normalized by B2M; read-out: HMOX1 Normalized fold change
Below: a set of entries, each annotated with reported fold induction at 10 µM.
recorded metric: fold induction at 10 µM

CCCN1C/C(=C\c2ccc(F)cc2)C(=O)/C(=C/c2ccc(F)cc2)C1 : 48.7
Cc1ccc(S(=O)(=O)Nc2cccc3cccnc23)cc1 : 1.04
O=C(Nc1cccc(C(F)(F)F)c1)c1ccc([N+](=O)[O-])o1 : 1.06
Nc1ccccc1S(=O)(=O)Nc1cccc2cccnc12 : 1.12

----------
Tested on: C. elegans
Assay: C. elegans lifespan assays (liquid and plate)
Format: in vivo, Caenorhabditis elegans
Conditions: Caenorhabditis elegans, 60 μM, in liquid, wild type, with FuDR, 1.0 × 10^9 bacteria/ml; read-out: relative change of mean lifespan vs control, Trial 1
Rule for this label: true means ILS at 60 µM is less than 30%; false means ILS at 60 µM is at least 30%.

CCc1ccc(Oc2nc3ccccn3c(=O)c2/C=C(\C#N)C(=O)NC2CCCCC2)cc1 : true
CC(C)(C)c1ccc(OCC(=O)Nc2ccc3c4c(cccc24)C(=O)NC3=O)cc1 : true
O=C(NCc1cccnc1)/C(=C\c1cccc(Oc2ccccc2)c1)S(=O)(=O)c1ccccc1 : false
CCCC(=O)Nc1ccc(-c2cn3cccc(C)c3n2)cc1 : false
CCc1ccc(Oc2nc3ccccn3c(=O)c2/C=C(\C#N)C(=O)NCc2ccco2)cc1 : false
O=C(Nc1cc(C(F)(F)F)ccc1Cl)c1ccc([N+](=O)[O-])o1 : true

----------
Test system: phosphorylated γH2A.X and TP53BP1
Experiment: DNA damage marker analysis (immuno-staining)
Settings: Homo sapiens, WI-38, 24 h, read-out: Experiment 2, TP53BP1-P DNA damage foci staining (no H2O2 stress treatment), at 10 uM
recorded metric: activity at 10 µM (%)

Oc1ncnc2sc3c(c12)CCC3 : 159
O=C(NCc1cccnc1)/C(=C\c1ccc(Br)cc1)S(=O)(=O)c1ccccc1 : 31.3
Cc1cc(C)c(C(=O)/C=C/c2ccccc2F)c(O)n1 : 183
O=C(/C=C/c1cn(-c2ccccc2)nc1-c1cccnc1)c1ccccc1 : 176
[O-][n+]1onc2c3nsnc3c(Br)cc21 : 148
COc1ccc(/C=C2\SC(=N)N(c3nccs3)C2=O)cc1 : 196
O=C(Nc1nc(C23CC4CC(CC(C4)C2)C3)cs1)C(c1ccccc1)c1ccccc1 : 135
CCc1ccccc1NC(=O)c1ccc([N+](=O)[O-])o1 : 375
CNC(=O)/C(C#N)=C/c1c(Oc2ccc(C(C)(C)C)cc2)nc2ccccn2c1=O : 145
CCCC(=O)Nc1ccc(-c2cn3cccc(C)c3n2)cc1 : 142
CCc1ccc(Oc2nc3ccccn3c(=O)c2/C=C(\C#N)C(=O)NCc2ccco2)cc1 : 223
Cc1cc(N)n(-c2ccccc2C(=O)O)n1 : 138
O=C1NCCCc2cc(Cl)sc21 : 143
